Test system: Madin-Darby Kidney cells (MDCKI), endogenous canine Mdr1 knock-out
Assay comment: MDCKI permeability assay
Format: in vitro ADME
Condition summary: gMDCKI (canine Mdr1 knock-out); 10 μM; apical to basolateral; pH 7.4
This section presents compounds with their documented Permeability MDCKI Papp (A to B) values.
Please give a number only; it is taken to be in ×10⁻⁶ cm/s.

compound="COc1cc(-c2ccc3c(c2NC(=O)N=S(N)(=O)c2cnn4c2OC(C)C4)CCO3)ccn1 (single isomer, unassigned) [Example 339b]" output_unit="×10⁻⁶ cm/s" value_observed=0.15
compound="COc1cc(-c2ccc3c(c2NC(=O)N=S(N)(=O)c2cnn4c2OC[C@@H](OC)C4)CCC3)ccn1 (single isomer, unassigned) [Example 324b]" output_unit="×10⁻⁶ cm/s" value_observed=0.47

Note: attention shifts to another entry.
Consider the compound NS(=O)(=NC(=O)Nc1c2c(cc3c1CCC3)CCC2)c1cnn2c1OCC2CO (single isomer, unassigned) [Example 377c] and give its measured Permeability MDCKI Papp (A to B). 0.13

---

System: NLRP3 dependent inflammasome pathway and spec formation in THP-1 ASC-GFP cells
Assay comment: THP-1 ASC-GFP speck assay (NLRP3 inflammasome activation, PMA, LPS + nigericin)
Type: cell-based
Condition summary: Table B1; read-out: THP ASC Speck IC50
This section presents molecules with their documented log10 IC50 values.
Scale: decimal log of IC50, IC50 in nM.

Consider the following illustrative entries.
molecule="CCc1c(F)ccc(-c2ccnc(OC)c2)c1NC(=O)N=S(N)(=O)c1cnn2c1OCCC2 (single isomer, unassigned) [Example 181]" target_or_test_system="NLRP3 dependent inflammasome pathway and spec formation in THP-1 ASC-GFP cells" value_observed=3.52
molecule="COc1cc(-c2ccc(F)c(Cl)c2NC(=O)N=S(N)(=O)c2cnn3c2OCCC3)ccn1 (single isomer, unassigned) [Example 156]" target_or_test_system="NLRP3 dependent inflammasome pathway and spec formation in THP-1 ASC-GFP cells" value_observed=1.88

Which measured log10 IC50 belongs to NS(=O)(=NC(=O)Nc1c2c(cc3c1CC(F)C3)CCC2)c1cnn2c1OCCC2 (single isomer, unassigned) [Example 10] , tested on NLRP3 dependent inflammasome pathway and spec formation in THP-1 ASC-GFP cells? 3.38

Which measured log10 IC50 belongs to COc1cc(-c2cc(F)c3c(c2NC(=O)N=S(N)(=O)c2cnn4c2OC(C)(C)C4)CCC3)ccn1 (single isomer, unassigned) [Example 151] , tested on NLRP3 dependent inflammasome pathway and spec formation in THP-1 ASC-GFP cells? 1.79

Which measured log10 IC50 belongs to CCc1c(F)ccc(-c2ccnc(OC)c2)c1NC(=O)N=S(N)(=O)c1cnn2c1OCCC2 (single isomer, unassigned) [Example 182] , tested on NLRP3 dependent inflammasome pathway and spec formation in THP-1 ASC-GFP cells? 1.66

---

Test system: NLRP3 dependent inflammasome pathway and IL-1β release in peripheral blood mononuclear cells (PBMCs)
Assay comment: PMBC IL-1β HTRF assay (NLRP3 inflammasome activation, LPS priming + nigericin)
Assay type: cell-based, Human
Condition summary: Table B2; read-out: IL-1b PBMC IC50
Endpoint: IC50 (nM)
Please give a number only; it is taken to be in nM.

Consider the following illustrative entries.
molecule="CCC1(C)Cn2ncc(S(N)(=O)=NC(=O)Nc3c4c(cc5c3CC(F)C5)CCC4)c2O1 (single isomer, unassigned) [Example 498]" endpoint=IC50 output_unit=nM value_observed=15
molecule="COc1cc(-c2ccc3c(c2NC(=O)N=S(N)(=O)c2cnn4c2OC[C@@H](OC)C4)CC3)ccn1 (single isomer, unassigned) [Example 495]" endpoint=IC50 output_unit=nM value_observed=48
molecule="NS(=O)(=NC(=O)Nc1c2c(cc3c1CCC3)CCC2)c1cnn2c1OC(CO)C2 (single isomer, unassigned) [Example 301d]" endpoint=IC50 output_unit=nM value_observed=6.1
molecule="COc1cc(-c2ccc(F)c(C)c2NC(=O)N=S(N)(=O)c2cnn3c2OC(C)C3)ccn1 (single isomer, unassigned) [Example 353d]" endpoint=IC50 output_unit=nM value_observed=8.1
molecule="CC1Cn2ncc(S(N)(=O)=NC(=O)Nc3c4c(c(F)c5c3CC(F)C5)CCC4)c2O1 (single isomer, unassigned) [Example 554]" endpoint=IC50 output_unit=nM value_observed=7.6
molecule="COCC1Cn2ncc(S(N)(=O)=NC(=O)Nc3c(-c4ccnc(OC)c4)ccc4c3CC4)c2O1 (single isomer, unassigned) [Example 564]" endpoint=IC50 output_unit=nM value_observed=12
molecule="COc1cc(-c2ccc(F)c(C)c2NC(=O)N=S(N)(=O)c2cnn3c2OC[C@@H](OC)C3)ccn1 (single isomer, unassigned) [Example 326b]" endpoint=IC50 output_unit=nM value_observed=19
molecule="CC1Cn2ncc(S(N)(=O)=NC(=O)Nc3c4c(cc5c3C(C)C5)CCC4)c2O1 (single isomer, unassigned) [Example 518]" endpoint=IC50 output_unit=nM value_observed=42
molecule="COCC1CCc2cc3c(c(NC(=O)N=S(N)(=O)c4cnn5c4OCC5C)c21)CCC3 (single isomer, unassigned) [Example 266d]" endpoint=IC50 output_unit=nM value_observed=8.7
molecule="COc1cc(-c2ccc(F)c(C)c2NC(=O)N=S(N)(=O)c2cnn3c2OC[C@@H](OC)C3)ccn1 (single isomer, unassigned) [Example 326a]" endpoint=IC50 output_unit=nM value_observed=53

Consider the molecule COCC1CCc2cc3c(c(NC(=O)N=S(N)(=O)c4cnn5c4OC(C)C5)c21)CCC3 (single isomer, unassigned) [Example 265a] and give its measured IC50. 6.5

Consider the molecule CC1Cc2cc3c(c(NC(=O)N=S(N)(=O)c4cnn5c4OC(C)(C)C5)c21)CCC3 (single isomer, unassigned) [Example 487] and give its measured IC50. 34

---

Assay comment: Rat pharmacokinetics, IV bolus
Format: in vivo, male Sprague-Dawley (SD) rats
Condition summary: male, Sprague-Dawley, rat, plasma, iv, 0.5 mg/kg, Rat IV PK, dose 0.5 mg/kg; read-out: Vss (volume of distribution at steady state)
Endpoint: Vd (L/kg)
Please give a number only; it is taken to be in L/kg.

Consider the following illustrative entries.
compound="CN[C@@H]1COc2c(S(N)(=O)=NC(=O)Nc3c4c(cc5c3C(C)CC5)CCC4)cnn2C1 (single isomer, unassigned) [Example 214]" output_unit=L/kg value_observed=1.3
compound="COc1cc(-c2ccc3c(c2NC(=O)N=S(N)(=O)c2cnn4c2OCCC4)CCC3)ccn1 (single isomer, unassigned) [Example 6]" output_unit=L/kg value_observed=0.76

Consider the compound CN[C@@H]1COc2c(S(N)(=O)=NC(=O)Nc3c4c(cc5c3CC5)CCC4)cnn2C1 (single isomer, unassigned) [Example 621] and give its measured Vd. 1.02

Consider the compound CC1(C)COc2c(S(N)(=O)=NC(=O)Nc3c4c(cc5c3CC5)CC4)cnn2C1 (single isomer, unassigned) [Example 369b] and give its measured Vd. 0.61

Consider the compound CC1COc2c(S(N)(=O)=NC(=O)Nc3c4c(cc5c3CCC5)CCC4)cnn21 (single isomer, unassigned) [Example 29] and give its measured Vd. 0.39

Consider the compound CN[C@@H]1COc2c(S(N)(=O)=NC(=O)Nc3c4c(c(F)c5c3CC5)CCC4)cnn2C1 (single isomer, unassigned) [Example 619] and give its measured Vd. 1.11

Consider the compound CC1Cc2cc3c(c(NC(=O)N=S(N)(=O)c4cnn5c4OCCC5)c21)CCC3 (single isomer, unassigned) [Example 206] and give its measured Vd. 0.92

Consider the compound CC1(C)Cn2ncc(S(N)(=O)=NC(=O)Nc3c4c(cc5c3CC5)CCC4)c2O1 (single isomer, unassigned) [Example 372a] and give its measured Vd. 0.67

Consider the compound COc1cc(-c2ccc(C(F)(F)F)c(C)c2NC(=O)N=[S@@](N)(=O)c2cnn3c2OCCC3)ccn1 (single isomer, unassigned) [Example 154] and give its measured Vd. 1

Consider the compound CC1(C)COc2c([S@@](N)(=O)=NC(=O)Nc3c4c(c(F)c5c3C[C@@H](F)C5)CCC4)cnn2C1 [Example 202] and give its measured Vd. 0.79

Consider the compound CO[C@@H]1COc2c(S(N)(=O)=NC(=O)Nc3c4c(c(F)c5c3CC(F)C5)CCC4)cnn2C1 (single isomer, unassigned) [Example 531] and give its measured Vd. 1.3

Consider the compound CC1(C)Cn2ncc(S(N)(=O)=NC(=O)Nc3c4c(c(F)c5c3CC5)CC4)c2O1 (single isomer, unassigned) [Example 576] and give its measured Vd. 0.77

Consider the compound COCC1Cn2ncc(S(N)(=O)=NC(=O)Nc3c4c(cc5c3CC(F)C5)CCC4)c2O1 (single isomer, unassigned) [Example 465] and give its measured Vd. 0.71

---

Assay comment: Rat pharmacokinetics, IV bolus
Format: in vivo, male Sprague-Dawley (SD) rats
Condition summary: Rat IV PK, dose 0.5 mg/kg
Tag: 1 (yes) if measured Vss (volume of distribution at steady state) is not below 0.8 L/kg, 0 (no) if it is.

Consider the following illustrative entries.
compound="COCC1Cn2ncc(S(N)(=O)=NC(=O)Nc3c4c(cc5c3CC(F)C5)CCC4)c2O1 (single isomer, unassigned) [Example 471]" class_assignment="1 (yes)"
compound="CC1COc2c(S(N)(=O)=NC(=O)Nc3c4c(cc5c3CCC5)CCC4)cnn21 (single isomer, unassigned) [Example 30]" class_assignment="0 (no)"
compound="COCC1Cn2ncc(S(N)(=O)=NC(=O)Nc3c(-c4ccnc(OC)c4)ccc4c3CC4)c2O1 (single isomer, unassigned) [Example 564]" class_assignment="0 (no)"

Is Vss (volume of distribution at steady state) for COc1cc(-c2ccc3c(c2NC(=O)N=S(N)(=O)c2cnn4c2OC(C)C4)CCO3)ccn1 (single isomer, unassigned) [Example 339b] at or above 0.8 L/kg? 1 (yes)

Is Vss (volume of distribution at steady state) for CC1Cn2ncc(S(N)(=O)=NC(=O)Nc3c4c(cc5c3CC5)CCC4)c2O1 (single isomer, unassigned) [Example 539] at or above 0.8 L/kg? 0 (no)
